# method_description: physchem
# Assay type: physicochemical
# recorded_conditions: water
outcome_measure: solubility

**Query** Consider the molecule shown here: `CC(=N)NCCSC[C@](C)(N)C(=O)O.O=C(O)/C=C\C(=O)O` What is its recorded solubility?
**Result** > 230 mg/mL

Each recorded value in this set is attributed to patent US20040204488A1.
